# System: HCT-15 colon
# Assay Explanation: NCI-60 one-dose screen, 48 h
# Measurement Conditions: 10 µM unless noted
Compounds without any hit were thinned out: in the full panel of roughly 83,000, 20% have a hit. Calls of active or inactive are those of the source. The calls were made as follows: active = growth percent below 10; inactive = the rest.
Allowed answers: 1 (yes) for active, 0 (no) for inactive

[[record]]
smiles_structure = "CN1CCN(c2ccc(Nc3nc(NCCCNS(=O)(=O)c4ccc(Cl)cc4)c4sccc4n3)cc2)CC1"
classification = "1 (yes)"

[[record]]
smiles_structure = "COC(=O)c1ccc(NC2=C(Cl)C(=O)c3nc(C)ccc3C2=O)cc1"
classification = "0 (no)"


Consider now this further compound.
Task: Call for entry `CCNCCOc1ccc(/C(=C(/CC)c2ccc(Cl)cc2)c2ccc(OCCCN(C)C)cc2)cc1` :
Output: 1 (yes)

###

# Test system: RXF 393 renal
# Assay Explanation: NCI-60 one-dose screen, 48 h (100 = growth as untreated, 0 = no growth, -100 = all killed)
# Measurement Conditions: 10 µM unless noted
The panel holds about 83,000 compounds, 20% with a hit somewhere; the sample as a whole holds those more often.
Measurement Name: growth (%)
The figure you give is taken to be in %; do not add the unit.

Some solved entries appear below for comparison.
[[record]]
compound = "COc1ccc(-c2c3c(cn2Cc2cccc(OC)c2)-c2oncc2CCC3)cc1"
meas_value = 111

[[record]]
compound = "Fc1cc(F)cc(NNC(=S)c2ccccc2)c1"
meas_value = -11

[[record]]
compound = "NS(=O)(=O)c1ccc(CCn2c(-c3ccc(C(=O)O)cc3)nc(-c3ccccc3)c2-c2ccccc2)cc1"
meas_value = 104


Task: Item `C#Cc1nc(/C=C/CCCCCCC(=O)NO)cs1` with RXF 393 renal - growth?
Output: -6.54

Task: Item `O=S(=O)(Oc1ccc(-c2cn3ccsc3n2)cc1)c1cccc(C(F)(F)F)c1` with RXF 393 renal - growth?
Output: 100

Task: Item CCCCN1C(=O)/C(=c2\sc3n(c2=O)C2C(NN=3)N(CC)C(=O)N2CC)c2cc(C)ccc21 (stereo not drawn) with RXF 393 renal - growth?
Output: 61.2

Task: Item `CC(=C(c1ccc(OCCN2CCCC2)cc1)c1ccc(OCCN2CCCC2)cc1)c1ccc(Cl)cc1` with RXF 393 renal - growth?
Output: -74.7

Task: Item `CCCCSC1=C(Cl)CN(c2ccc(Cl)cc2)C1=O` with RXF 393 renal - growth?
Output: 109

Task: Item `Cc1cc2nc3c4cc(C#N)ccc4n(CCN(C)C)c3nc2cc1C` with RXF 393 renal - growth?
Output: -62.1

Task: Item `O=C(CSc1cc[n+](CCCCO)c2ccccc12)n1ccc2ccccc21` with RXF 393 renal - growth?
Output: 107

###

# System: 786-0 renal
# Assay Explanation: NCI-60 one-dose screen, 48 h (100 = growth as untreated, 0 = no growth, -100 = all killed)
# Measurement Conditions: 10 µM unless noted
Compounds without any hit were thinned out: in the full panel of roughly 83,000, 20% have a hit. Active and inactive are the calls of the source. Rule for the calls: active = growth percent below 10; inactive = the rest.
Each entry below carries its recorded growth.

[[record]]
smiles_structure = "CCCCCCN1C=C/C(=C\\C(=O)n2ccc3ccccc32)c2ccccc21"
measurement_name = "growth"
meas_value = "86.6% (inactive)"

[[record]]
smiles_structure = "O=C(COc1ccc(/C=C2\\C(=O)Nc3cc(Cl)ccc32)cc1)Nc1ccc(Cl)cc1"
measurement_name = "growth"
meas_value = "90.7% (inactive)"

[[record]]
smiles_structure = "Cc1ccc2c(n1)C(=O)C(Cl)=C(Nc1cc(C(F)(F)F)cc(C(F)(F)F)c1)C2=O"
measurement_name = "growth"
meas_value = "80.3% (inactive)"

[[record]]
smiles_structure = "N#C/C(=C\\c1cccc2c1OCO2)C(=O)Nc1sc2c(c1C#N)CCCC2"
measurement_name = "growth"
meas_value = "99.6% (inactive)"

[[record]]
smiles_structure = "Cn1cc(-c2nnc(N)nc2-c2c[nH]c3ccc(Br)cc23)c2cc(Br)ccc21"
measurement_name = "growth"
meas_value = "89.5% (inactive)"


Continue with the next compound.
Task: Item `CCc1cc2c(cc1Cl)nc1c(=O)[nH]c(=O)nc-1n2CCOCC(C)C` with 786-0 renal - growth?
Output: 70.3% (inactive)

Sourced from PubChem BioAssay (NCI)
